experiment: Quantification of viable NP cells (LIVE/DEAD staining); type: cell-based, human; conditions: both sexes, human, human nucleus pulposus (NP) cells; 10 to 500 nM, day 3 post-treat; read-out: Percentage of viable cells
Structures can show the parent of a compound that is named as a salt.
property label: viability at 3 days

For the molecule shown here, CC[C@]1(O)C[C@H]2CN(CCc3c([nH]c4ccccc34)[C@@](C(=O)OC)(c3cc4c(cc3OC)N(C=O)[C@H]3[C@@](O)(C(=O)OC)[C@H](OC(C)=O)[C@]5(CC)C=CCN6CC[C@]43[C@@H]65)C2)C1 [Vcr, vincristine sulfate] , give the reported viability at 3 days. > 81%
